// values below are reported POC (Percent of control) AURORA A
- TARGET: ProfilerPro Kinase Selectivity Assay Kit kinases (Homo sapiens)
- Assay type: biochemical
- RUN_PARAMETERS: AURORA A; 1 μM compound concentration

MOLECULE: c1cnc(Nc2cccc3[nH]ncc23)c(-c2ncnc3[nH]cnc23)c1 [Example 18]
POC (Percent of control) AURORA A (POC): 84

MOLECULE: COc1ccc(Nc2ncc(Cc3ccc(S(C)(=O)=O)cc3)cc2-c2nc(C)nc3[nH]cnc23)cn1 [Example 103]
POC (Percent of control) AURORA A (POC): 100

MOLECULE: Cc1nc(N)nc(-c2cc(CN3CCN(S(C)(=O)=O)CC3)cnc2Nc2cccc(O)c2)n1 [Example 30]
POC (Percent of control) AURORA A (POC): 100

MOLECULE: COc1ccc(Nc2ncccc2-c2ncnc3[nH]cnc23)cn1 [Example 20]
POC (Percent of control) AURORA A (POC): 96

----------
- Test system: phosphorylation of Akt at Serine 473 in U87 MG cells
- EXPERIMENT_DESCRIPTION: cells
- RUN_PARAMETERS: Homo sapiens, U-87 MG, 2 h, read-out: U87Cell IC50, pAkt (Ser 473), U87 MG cells, two hours with compound
pIC50: −log10 of the molar value.
// values below are reported pIC50

SMILES_TEXT: COc1ccc(Nc2nc(N3CCOCC3)ncc2-c2nc(C)nc(N)n2)cn1
RESULT_OPERATOR: =
pIC50: 6.83
--
SMILES_TEXT: COc1ccc(Nc2ncc(CN3CC(S(C)(=O)=O)C3)cc2-c2nc(C)nc(N)n2)cn1
RESULT_OPERATOR: =
pIC50: 7.55
--
SMILES_TEXT: COc1ccc(Nc2nc(-c3cccnc3)ccc2-c2nc(C)nc(N)n2)cn1
RESULT_OPERATOR: =
pIC50: 6.23
--
SMILES_TEXT: Cc1nc(N)nc(-c2cc([C@@H](C)N3CCN(S(C)(=O)=O)C[C@@H]3C)cnc2Nc2ccc(Cl)nc2)n1
RESULT_OPERATOR: =
pIC50: 7.51
--
SMILES_TEXT: COc1ccc(Nc2ncc(CN3CC(O)C3)cc2-c2nc(C)nc(N)n2)cn1
RESULT_OPERATOR: =
pIC50: 6.56
--
SMILES_TEXT: COc1ccc(Nc2ncc(CN3CC(N)C3)cc2-c2nc(C)nc(N)n2)cn1
RESULT_OPERATOR: =
pIC50: 6.39
--
SMILES_TEXT: COc1ccc(Nc2nc3ccccc3cc2-c2nc(C)nc3[nH]cnc23)cn1
RESULT_OPERATOR: <
pIC50: 5.00
--
SMILES_TEXT: Cc1nc(N)nc(-c2cccnc2Nc2ccc(F)c(F)c2)n1
RESULT_OPERATOR: =
pIC50: 5.64
--
SMILES_TEXT: COc1ncc(Nc2ncc([C@@H](C)N3CCN(S(C)(=O)=O)CC3)cc2-c2nc(C)nc(N)n2)cc1C(C)C
RESULT_OPERATOR: =
pIC50: 6.69
--
SMILES_TEXT: COc1ncc(Nc2ncc(Cc3ccc(S(C)(=O)=O)cc3)cc2-c2nc(C)nc(N)n2)cc1F
RESULT_OPERATOR: =
pIC50: 8.22
--
SMILES_TEXT: COCCOc1ccc(NC(=O)Nc2ccc(Nc3ncc(Cl)cc3-c3nc(C)nc(N)n3)cn2)cc1
RESULT_OPERATOR: <
pIC50: 5.00
--
SMILES_TEXT: CCC(N)(CC)c1cnc(Nc2cnc(OC)c(F)c2)c(-c2nc(C)nc(N)n2)c1
RESULT_OPERATOR: =
pIC50: 7.15
--
SMILES_TEXT: COc1ncc(Nc2ncccc2-c2nc(C)nc3[nH]cnc23)cn1
RESULT_OPERATOR: =
pIC50: 6.76
--
SMILES_TEXT: COc1ncc(Nc2ncc([C@@H](C)N3CCN(S(C)(=O)=O)C[C@@H]3C)cc2-c2cc(N)nc(C)n2)cc1F
RESULT_OPERATOR: =
pIC50: 8.52
--
SMILES_TEXT: COc1ncc(Nc2ncc(C3(O)CC3)cc2-c2nc(C)nc(N)n2)cc1F
RESULT_OPERATOR: =
pIC50: 7.64
--
SMILES_TEXT: Cc1cnc(Nc2cccnc2)c(-c2nc(C)nc(N)n2)c1
RESULT_OPERATOR: =
pIC50: 6.23
--
SMILES_TEXT: COc1ccc(Nc2ncc(Nc3ccccc3)cc2-c2nc(C)nc3[nH]cnc23)cn1
RESULT_OPERATOR: =
pIC50: 6.04

Data provenance: patent US8772480B2
